# reported composite z-score; entries follow
Test system: XIP peptide (Xip251-270)
Method: small-molecule binders of XIP peptide, primary screen, biochemical, small-molecule microarray, fluorescence 635/667 nm, 0.5 µg/mL protein (AID 1183)
Test settings: small-molecule microarray binding, fluorescence 635 nm; higher = more signal

Please review the following examples before continuing.
Cc1ccc(S[C@]2(C(=O)NCC(C)C)CC(=O)N(Cc3cc(C(F)(F)F)cc(C(F)(F)F)c3)[C@@H]2c2ccc(CO)cc2I)cc1 : 0.569
C=CCN1C(=O)[C@@]2(O[C@@H](CCO)[C@H]([Si](C)(C)c3ccc(OC)cc3)[C@H]2C)c2cc(NC(=O)c3ccc(OC)cc3)ccc21 : 0.208

Given the entry COc1cc2c(cc1O)C(C1CC1)N(Cc1cc3c(cc1Br)OCO3)CC2 (configuration not stated) , report its measured composite z-score. 0.479

Given the entry COc1ccc(C(=O)Nc2ccc(CN3C(=O)[C@@]4(O[C@@H](CC(=O)N5CCC[C@H]5CO)[C@H]([Si](C)(C)c5ccc(OC)cc5)[C@H]4C)c4ccccc43)cc2)cc1 , report its measured composite z-score. 0.703

Given the entry CN1C(=O)C2C=CC(C(O)C3=C[C@H]4C[C@@H](C3)C4(C)C)N(Nc3ccccc3)C2C1=O (some centres not stated) , report its measured composite z-score. 0.151

Given the entry CCCCc1cn(C[C@H](Cc2ccccc2)NC(=O)N[C@H](CO)CCc2oc(C(C)=O)c(C(=O)OC)c2C(=O)OC)nn1 , report its measured composite z-score. 0.512

Given the entry COc1ccc([Si](C)(C)[C@H]2[C@H](CCO)O[C@@]3(C(=O)N(C)c4c(Br)cc(C)cc43)[C@@H]2C)cc1 , report its measured composite z-score. 0.837
